biological target: T1, human PD-L1 expressed on CHO-K1 cells (Genscript, Cat #M00543) (human, UniProt Q9NZQ7 19-290); assay: FACS competition vs biotin-PD-1-Fc on CHO-K1/human PD-L1 cells
T1 construct: also called PD-L1 cell line
T1 sequence (Q9NZQ7 19-290, one chain of several): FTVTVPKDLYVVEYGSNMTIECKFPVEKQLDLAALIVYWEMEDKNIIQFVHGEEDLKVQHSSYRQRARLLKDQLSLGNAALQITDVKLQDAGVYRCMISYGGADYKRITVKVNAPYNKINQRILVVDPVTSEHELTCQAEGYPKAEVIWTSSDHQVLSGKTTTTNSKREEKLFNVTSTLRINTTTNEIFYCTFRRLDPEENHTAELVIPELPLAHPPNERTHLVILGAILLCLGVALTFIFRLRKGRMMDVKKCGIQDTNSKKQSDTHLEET
pIC50: −log10 of the molar value.
Property name: pIC50

INSERT INTO results (binder, property_name, measured) VALUES
  ('21D1F4D4 (antibody, V domains shown, Mouse mAb from hybridoma culture) VH: QVQLQQPGAEVVRPGASVKLSCKASGYTFTNYWISWVKQRPGQGLEWIGNIYPSDSYTNYNQNFKDKATLTVDKSSSTAYMQLSSPTSEDSAVYYCTTGIITVIATRDDYWGQGTTLTVSS VL: QIVLTQSPAIMSASPGEKVTLTCSASSSVSSSYLYWYQQKPGSSPKLWIYSTSNLASGVPARFSGSGSGTSYSLTVSSMEAEDAASYFCHQWSSYPFTFGSGTKLEIK', 'pIC50', 8.42);
